Entry source: patent US20210330611A1

- Test system: fibrin-induced microglia activation
- method_notes: Image-based assay of fibrin-induced microglia activation (HTS and dose response)
- Format: cell-based, rat
- experimental_context: Rattus norvegicus, Microglia, primary microglia HTS, fibrin stimulation, compounds at 10 μM; read-out: Fibrin % inhibition
Structures can show the parent of a compound that is named as a salt.
property_name: inhibition at 10 µM (%)

INSERT INTO assay_data (compound, system_name, recorded_result) VALUES
  ('CNCC[C@@H](Oc1ccccc1C)c1ccccc1 [Atomoxetine Hydrochloride]', 'fibrin-induced microglia activation', 15),
  ('Oc1ncnc2[nH]ncc12', 'fibrin-induced microglia activation', -17),
  ('OCC(O)CN1CCN(c2ccccc2)CC1 (stereo not shown)', 'fibrin-induced microglia activation', -26),
  ('CC12CCC(CC1)C(C)(C)O2', 'fibrin-induced microglia activation', -15),
  ('Cn1c(=O)c2c(ncn2CC2OCCO2)n(C)c1=O', 'fibrin-induced microglia activation', -42),
  ('Cc1cnc(C(=O)O)c[n+]1[O-]', 'fibrin-induced microglia activation', -11),
  ('CCCCCCCCCCCCCCCCCCCCCCO', 'fibrin-induced microglia activation', -10),
  ('C#Cc1cccc(Nc2ncnc3cc(OCCOC)c(OCCOC)cc23)c1', 'fibrin-induced microglia activation', -52),
  ('O=C(O)Cc1ccccc1Nc1c(Cl)cccc1Cl', 'fibrin-induced microglia activation', -27),
  ('CC1CNc2c(cccc2S(=O)(=O)N[C@@H](CCCNC(=N)N)C(=O)N2CC[C@@H](C)C[C@@H]2C(=O)O)C1 (stereo partly shown)', 'fibrin-induced microglia activation', -10);

====

Reported LPS % cell toxicity values follow for various compounds
- Test system: primary rat microglia
- method_notes: Cell toxicity (dead cells, size <150 μm2) in LPS assay
- experimental_context: primary microglia HTS, LPS stimulation; decreased size (<150 μm^2) as marker of toxicity
Where a name gives a salt, the structure may show the parent alone.
property_name: LPS % cell toxicity (%)

INSERT INTO assay_data (compound, property_name, unit_info, recorded_result) VALUES
  ('Cc1cccc(C)c1NC(=O)CN1CCCC1=O', 'LPS % cell toxicity', '%', 0),
  ('CC1CCCC(C)N1 (stereo not drawn)', 'LPS % cell toxicity', '%', 0),
  ('Cc1cc(-c2ccccc2)nnc1NCCN1CCOCC1', 'LPS % cell toxicity', '%', 0),
  ('CCc1nn(CCCN2CCN(c3cccc(Cl)c3)CC2)c(=O)n1CCOc1ccccc1', 'LPS % cell toxicity', '%', 0),
  ('CCN(CC)C(=O)C1(c2ccccc2)CC1CN (stereo not drawn) [Milnacipran hydrochloride, reference compound]', 'LPS % cell toxicity', '%', 1),
  ('O=C(NC(=O)c1c(F)cccc1F)Nc1cc(Cl)c(OC(F)(F)C(F)C(F)(F)F)cc1Cl (stereo not drawn)', 'LPS % cell toxicity', '%', 0),
  ('N=C(NCCCCCCNC(=N)NC(=N)Nc1ccc(Cl)cc1)NC(=N)Nc1ccc(Cl)cc1', 'LPS % cell toxicity', '%', 8),
  ('COc1ccc2c(c1OC)C(=O)O[C@@H]2[C@H]1c2c(cc3c(c2OC)OCO3)CCN1C [Noscapine Hydrochloride]', 'LPS % cell toxicity', '%', 0),
  ('CC(C)C(=O)c1c(C(C)C)nn2ccccc12 [Ibudilast, reference compound]', 'LPS % cell toxicity', '%', 1);
